System: OVCAR-8 ovarian
PROCEDURE_TEXT: NCI tumour cell line growth inhibition, 48 h
The following compounds are shown together with reported TGI values.

Example entries and their recorded answers appear below.
1) Cn1cc(S(=O)(=O)NC(=O)Nc2ccc(Cl)cc2)c2ccccc21 :: > 100 µM
2) CCOc1ccc(/C(C=O)=C(\Cl)c2ccc(OC)c(OC)c2)cc1 :: > 100 µM

Tell me TGI reported for COC1=C(Br)C(O)C2(C=C1Br)CC(C(=O)NCCCCNC(=O)C1=NOC3(C=C(Br)C(OC)=C(Br)C3O)C1)=NO2 (stereo not given)
> 100 µM

Tell me TGI reported for Cc1ccc(C2N=C(N)NC3=C2CCOc2c3ccc3ccccc23)cc1 (stereo not given)
> 70.5 µM

Tell me TGI reported for CC(=O)C=NCC(=O)O
> 100 µM

* * *

System: T-47D breast
PROCEDURE_TEXT: NCI tumour cell line growth inhibition, 48 h
METRIC_NAME: TGI

Example entries and their recorded answers appear below.
1. COc1cccc(-n2cc(-c3nc(Nc4cc(C)[nH]n4)c4ccccc4n3)nn2)c1 :: 9.61 µM
2. O=C(c1ccco1)c1c(C(F)(F)F)nc2ccc(C(F)(F)F)cc2[n+]1[O-] :: > 87.5 µM
3. CC(=O)c1ccc(Nc2nc(Nc3ccc(F)cc3)nc(Nc3ccc(F)cc3)n2)cc1 :: 65.2 µM
4. O=C1CCCC(=O)N1n1c(Cc2ccccc2)n[nH]c1=O :: > 100 µM
5. Cc1c(/C=N/NC(=S)Nc2ccccc2)c(=O)n(-c2ccccc2)n1C :: > 100 µM
6. COC(C(=O)C(O)C(C)O)C1Cc2cc3cc(OC4CC(OC5CC(O)C(O)C(C)O5)C(O)C(C)O4)c(C)c(O)c3c(O)c2C(=O)C1OC1CC(OC2CC(O)C(OC3CC(C)(O)C(O)C(C)O3)C(C)O2)C(O)C(C)O1 (centres undefined) :: 15.8 µg/mL
7. C=C1CC[C@@H]2[C@](C)(COC(C)=O)[C@H](OC(C)=O)CC[C@@]2(C)[C@@H]1CC(Nc1ccc(S(=O)(=O)Nc2cc(C)on2)cc1)C1=CCOC1=O (some centres undefined) :: 7.37 µM
8. COc1ccc2c(Cc3c4ccccc4cc4ccccc34)cncc2c1O :: > 71.7 µM

Next:
System T-47D breast. Read-out TGI. Item CN1C(=O)C(C(N)=O)C2CC1(C)Oc1ccccc12 (centres undefined) . Report value.
> 100 µM

* * *

System: COLO 205 colon
PROCEDURE_TEXT: NCI tumour cell line growth inhibition, 48 h; in the data active = GI50 below about 0.43 µM; inactive = the rest
Classes to choose from: active, inactive

Known results for compounds:
1. CC[C@@H](C(=O)[C@H](C)[C@H](O)[C@@H](C)[C@H]1O[C@H]([C@@H](CC)C(=O)O)CC[C@H]1C)C1O[C@]2(C=C[C@@H](O)[C@]3(CC[C@@](C)([C@H]4CC[C@](O)(CC)[C@H](C)O4)O3)O2)[C@H](C)C[C@@H]1C (stereo partly drawn) :: active
2. C=C1CC[C@@H]2[C@](C)(COC(C)=O)[C@H](OC(C)=O)CC[C@@]2(C)[C@@H]1CC(Nc1ccc(S(=O)(=O)Nc2cc(C)on2)cc1)C1=CCOC1=O (stereo partly drawn) :: inactive
3. CC1=C(C(=O)Nc2ccc3[nH]ncc3c2)C(c2ccc(Cl)c(Cl)c2)CC(=O)N1 (stereo not drawn) :: inactive

GET /call?item= CNc1cc2nc3cc(NC)c(C)cc3cc2cc1C returns the recorded outcome of this test.
inactive

GET /call?item= CCC(C)[C@H](NC(=O)NC(=O)NC(=O)CI)C(=O)OC (stereo partly drawn) returns the recorded outcome of this test.
inactive

GET /call?item= C=C1COC(O)(C2OCOC(C3CC(=O)NC(=O)C3)C2O)C1C (stereo not drawn) returns the recorded outcome of this test.
active

GET /call?item= CC(=O)c1ccc(Nc2nc(Nc3ccc(F)cc3)nc(Nc3ccc(F)cc3)n2)cc1 returns the recorded outcome of this test.
inactive

GET /call?item= Clc1nc(Cl)c2c3c(sc2n1)CCCC3 returns the recorded outcome of this test.
inactive

* * *

System: HCT-116 colon
PROCEDURE_TEXT: NCI tumour cell line growth inhibition, 48 h
The following molecules are shown together with reported TGI values.
Give just the number in µM; leave the unit off.

1. COc1cc2nc(-c3ccc(Cl)cc3)cc(OCCCN3CCCC3)c2cc1OC :: 10.1
2. NC1(C(=O)O)CCc2ccc(N(CCCl)CCCl)cc2C1 (stereo unspecified) :: 1.69

Next:
System HCT-116 colon. Read-out TGI. Item Cc1cc(=O)n2c3c(c4c(cc13)c(CO)cc(=O)n4C)OC2 . Report value.
15.8

* * *

Tested on: RXF 393 renal
PROCEDURE_TEXT: NCI tumour cell line growth inhibition, 48 h
METRIC_NAME: GI50

Example entries and their recorded answers appear below.
1. C[N+](C)(CCCCCC[N+](C)(C)CCCN1C(=O)c2cc3ccccc3cc2C1=O)CCCN1C(=O)c2cc3ccccc3cc2C1=O :: > 37500 nM
2. COC(=O)c1ccc2c(c1)C(=O)c1c-2n(C)c(=O)c2cc(OC)c(OC)cc12 :: 123 nM
3. C/C(=N\NC(=S)N1CCN(C2CCCCCC2)CC1)c1ccccn1 :: 2450 nM

Next:
Tell me GI50 reported for N.N.O=P([O-])([O-])CN(CCN(CP(=O)([O-])[O-])CP(=O)([O-])[O-])CP(=O)([O-])[O-].[Pt+2]
> 100000 nM

* * *

The following compounds are shown together with reported TGI values.
Tested on: 786-0 renal
PROCEDURE_TEXT: NCI tumour cell line growth inhibition, 48 h

Example entries and their recorded answers appear below.
1. Cn1cc(S(=O)(=O)NC(=O)Nc2ccc(Cl)cc2)c2ccccc21 :: > 100 µM
2. Cc1c(/C=N/NC(=S)Nc2ccccc2)c(=O)n(-c2ccccc2)n1C :: > 100 µM

Tell me TGI reported for Cc1cc(C)n2c(-c3ccccc3)c(C)cc2n1
> 100 µM

Tell me TGI reported for Nc1ccccc1NC(=O)c1ccc(CN2CCC/C(=C\c3ccccn3)C2=O)cc1
30.2 µM

Tell me TGI reported for NC(=O)c1ncn(CCN2CCN(C(=O)NCCCCCCNC(=O)N3CCN(CCn4cnc(C(N)=O)c4N)CC3)CC2)c1N
> 100 µM

* * *

Test system: K-562 leukemia
PROCEDURE_TEXT: NCI tumour cell line growth inhibition, 48 h
The following compounds are shown together with reported TGI values.

Example entries and their recorded answers appear below.
1) CSc1c(C(=O)Nc2ccc(C)cc2)c(N)n(N)c(=O)c1C#N :: > 100 µM
2) C[N+](C)(C)/N=C/c1ccc(O)c(O)c1 :: > 100 µM

Next:
Tell me TGI reported for CCOC(=O)c1ccc2c(c1)nc(/C=C/c1ccc(Cl)cc1)n2-c1cc(C(C)(C)C)[nH]n1
> 100 µM

* * *

The following molecules are shown together with reported TGI values.
Tested on: HS 578T breast
PROCEDURE_TEXT: NCI tumour cell line growth inhibition, 48 h
Give just the number in µM; leave the unit off.

1) O=C(COc1ccc(OCC(=O)NNC2=NC(c3cc(F)c(Cl)cc3Cl)CS2)c(Cl)c1)NNC1=NC(c2cc(F)c(Cl)cc2Cl)CS1 (stereo not drawn) :: 48.7

Tell me TGI reported for C=C1COC(O)(C2OCOC(C3CC(=O)NC(=O)C3)C2O)C1C (stereo not drawn)
0.0265

Tell me TGI reported for NC1CCC(Nc2nc(NCc3cc(Cl)ccc3O)c3ncn(C4CCCC4)c3n2)CC1 (stereo not drawn)
0.893

Tell me TGI reported for C[n+]1c2ccccc2n2c3ccccc3c(NCCc3ccccn3)c(C#N)c21
12.1

Tell me TGI reported for CC(C)(CCN=C(N)Nc1ccccn1)c1ccc(C(F)(F)F)cc1
39.3

Tell me TGI reported for O=C1C=CC(=Nc2ccccc2)c2ccccc21
88.6

* * *

System: HCT-116 colon
PROCEDURE_TEXT: NCI tumour cell line growth inhibition, 48 h
METRIC_NAME: TGI

Example entries and their recorded answers appear below.
1. COC(=O)NN1C(C)=C(C(=O)OC)C2(C#N)C(C(=O)OC)=C(C)N(NC(=O)OC)C12N (stereo unspecified) :: > 100 µM
2. COc1cc(/C=C/c2nc(N)nnc2C)cc(OC)c1OC :: > 53.9 µM
3. O=C(CC1(O)C(=O)Nc2ccccc21)c1ccc(F)cc1 (stereo unspecified) :: > 100 µM
4. Cc1cc(C)n2c(-c3ccccc3)c(C)cc2n1 :: > 100 µM
5. CC(C)(C)CNC(=O)NCn1cc(-c2ccccc2)nn1 :: > 100 µM

Next:
System HCT-116 colon. Read-out TGI. Item COC1(OC)N=C(N)C2(C#N)C3(C(=O)N(C(C)C)N=C3C)C12C#N (stereo unspecified) . Report value.
> 100 µM
